Recorded EC50 for the following molecules
- system_tested: LXRβ (Homo sapiens)
- Construct: Co-transfection expression plasmids, comprising full-length LXRα (pCMX-h LXRα or LXRβ (pCMX-hLXRβ)); expressed in transfected cells; host or cells: CV-1 African green monkey kidney cells, transient transfection with pCMX-hLXRβ
- method_description: LXR/LXRE co-transfection assay (luciferase reporter) in CV-1 cells, LXRβ
- Format: cell-based
- condition_set: CV-1 cells transfected with pCMX-hLXRβ and LXREx1-Tk-Luciferase, 20 hours incubation, read-out: LXRbeta agonism EC50
- Description: To measure the ability of compounds to activate or inhibit the transcriptional activity of LXR in a cell based assay, the co-transfection assay was used. It has been shown that LXR functions as a heterodimer with RXR. […] Treatment of transfected cells with an LXR agonist increases the transcriptional activity of LXR, which is measured by an increase in luciferase activity. […]

Some entries whose results are on file:
>  <molecule>
Cn1nc(C(F)(F)F)cc1-c1ccc(-c2cccc(S(C)(=O)=O)c2)cc1-n1nncc1-c1ccc(OC(F)(F)F)cc1 [Example 14]

>  <EC50>
32 nM

$$$$
>  <molecule>
Cc1nc(-c2ccc3c(c2)OC(F)(F)O3)c(-c2cc(-c3cc(F)c(CO)c(S(C)(=O)=O)c3)ccc2-c2cc(C(C)(F)F)nn2C)o1 [Example 95]

>  <EC50>
19 nM

$$$$

We now examine a further molecule.
// returns EC50 for Cc1nc(-c2cc(-c3cc(F)c(CO)c(S(C)(=O)=O)c3)ccc2-n2ccc(C(F)(F)F)n2)c(-c2ccc(Cl)c(OC(F)F)c2)o1 [Example 396] with LXRβ (Homo sapiens); value = 90 nM

---

- system_tested: LXRβ (Homo sapiens, UniProt P55055)
- Construct: Co-transfection expression plasmids, comprising full-length LXRα (pCMX-h LXRα or LXRβ (pCMX-hLXRβ)); expressed in transfected cells; host or cells: CV-1 African green monkey kidney cells, transient transfection with pCMX-hLXRβ
- Sequence (P55055 whole entry): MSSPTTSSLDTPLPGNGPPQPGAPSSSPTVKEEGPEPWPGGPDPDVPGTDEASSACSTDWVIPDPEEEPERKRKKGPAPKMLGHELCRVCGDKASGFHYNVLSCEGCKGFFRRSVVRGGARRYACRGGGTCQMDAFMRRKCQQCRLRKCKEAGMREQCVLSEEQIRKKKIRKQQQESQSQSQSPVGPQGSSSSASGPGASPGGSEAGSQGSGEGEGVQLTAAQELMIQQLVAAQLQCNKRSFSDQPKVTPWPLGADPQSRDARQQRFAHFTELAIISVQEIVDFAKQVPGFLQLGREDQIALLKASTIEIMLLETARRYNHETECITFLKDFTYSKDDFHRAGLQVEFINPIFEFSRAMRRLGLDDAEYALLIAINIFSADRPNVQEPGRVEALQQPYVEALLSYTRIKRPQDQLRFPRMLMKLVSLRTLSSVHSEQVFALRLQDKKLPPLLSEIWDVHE
- Sequence (P19793 whole entry partner): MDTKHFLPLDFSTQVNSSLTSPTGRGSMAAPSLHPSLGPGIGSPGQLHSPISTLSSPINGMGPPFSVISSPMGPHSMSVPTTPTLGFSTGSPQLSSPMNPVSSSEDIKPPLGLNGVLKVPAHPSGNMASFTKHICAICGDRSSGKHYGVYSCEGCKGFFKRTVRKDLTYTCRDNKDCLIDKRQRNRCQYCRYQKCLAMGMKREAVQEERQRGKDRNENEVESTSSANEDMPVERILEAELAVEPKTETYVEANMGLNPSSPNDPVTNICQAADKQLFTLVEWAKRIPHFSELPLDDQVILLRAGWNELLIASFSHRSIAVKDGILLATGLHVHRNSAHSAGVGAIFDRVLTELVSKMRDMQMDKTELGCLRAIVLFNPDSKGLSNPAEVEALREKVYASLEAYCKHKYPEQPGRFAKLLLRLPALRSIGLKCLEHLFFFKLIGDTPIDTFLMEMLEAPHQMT
- method_description: LXR/LXRE co-transfection assay (luciferase reporter) in CV-1 cells, LXRβ
- Format: cell-based
- condition_set: CV-1 cells, relative to maximum response of high control N-(3-((4-fluorophenyl)-(naphthalene-2-sulfonyl)amino)propyl)-2,2-dimethylpropionamide, read-out: LXRbeta % EFFICACY
Assign label 1 to entries whose Emax meets or exceeds 60%; assign label 0 to the rest.

>  <molecule_smiles>
Cc1nc(-c2ccc(OC(F)F)nc2)c(-c2cc(-c3cccc(S(C)(=O)=O)c3)ccc2-n2ccc(C(F)(F)F)n2)o1

>  <qualitative_label>
label 1

$$$$
>  <molecule_smiles>
Cn1nc(C(F)(F)C(N)=O)cc1-c1ccc(-c2cc(F)c(CO)c(S(C)(=O)=O)c2)cc1-c1oc(C2CC2)nc1-c1ccc2c(c1)OC(F)(F)O2

>  <qualitative_label>
label 0

$$$$
>  <molecule_smiles>
CCOc1cc(C(F)(F)F)nn1-c1ccc(-c2cc(F)c(CO)c(S(C)(=O)=O)c2)cc1-c1nc(C)oc1-c1ccc(OC(F)(F)F)cc1

>  <qualitative_label>
label 0

$$$$
>  <molecule_smiles>
Cc1nc(-c2ccc(OC(F)(F)F)cc2)c(-c2cc(-c3cccc(S(C)(=O)=O)c3)ccc2-n2ccc(C(F)(F)F)n2)o1

>  <qualitative_label>
label 1

$$$$
>  <molecule_smiles>
Cc1nc(-c2ccc(OC(F)(F)F)cc2)c(-c2cc(-c3cccc(S(C)(=O)=O)c3)ccc2-n2cc(Cl)c(C(C)(C)O)n2)o1

>  <qualitative_label>
label 0

$$$$

Inquiry: Tell me whether Emax is at least 60% here: "Cc1nc(-c2ccc3c(c2)OC(F)(F)O3)c(-c2cc(-c3cccc(S(C)(=O)=O)c3)ccc2-c2cc(CO)nn2C)o1"
Reply text: label 0

Inquiry: Does "Cc1nc(-c2ccc(OC(F)(F)F)cc2)c(-c2cc(-c3cccc(S(C)(=O)=O)c3)ccc2-n2nc(C(F)(F)F)cc2C)o1" have a reported Emax of at least 60%?
Reply text: label 1

Inquiry: Check this compound for Emax at or above 60%: "Cc1nc(-c2ccc(OC(F)F)c(F)c2)c(-c2cc(-c3cc(F)c(CO)c(S(C)(=O)=O)c3)ccc2-c2cc(C(F)(F)C(N)=O)nn2C)o1"
Reply text: label 0

Inquiry: Check the entry "Cc1nc(-c2ccc(OC(F)F)nc2)c(-c2cc(-c3cc(F)c(CO)c(S(C)(=O)=O)c3)ccc2-n2cc(Cl)c(C(F)(F)F)n2)o1" : does Emax equal or exceed 60%?
Reply text: label 1

Inquiry: Given the entry "Cc1nc(-c2ccc(OC(F)F)nc2)c(-c2cc(-c3cccc(S(C)(=O)=O)c3)ccc2-n2cc(Cl)c(C(F)(F)F)n2)o1" , answer whether its Emax meets or surpasses 60%.
Reply text: label 1

Inquiry: Textbook exercise: given the entry "Cc1nc(-c2ccc3c(c2)OC(F)(F)O3)c(-c2cc(-c3cc(F)c(CO)c(S(C)(=O)=O)c3)ccc2-c2cc(C#N)nn2C)o1" , state whether its Emax is greater than or equal to 60%.
Reply text: label 0

---

A collection of molecules and their measured Emax
- system_tested: LXRβ (Homo sapiens, UniProt P55055)
- Construct: Co-transfection expression plasmids, comprising full-length LXRα (pCMX-h LXRα or LXRβ (pCMX-hLXRβ)); expressed in transfected cells; host or cells: CV-1 African green monkey kidney cells, transient transfection with pCMX-hLXRβ
- method_description: LXR/LXRE co-transfection assay (luciferase reporter) in CV-1 cells, LXRβ
- Assay type: cell-based
- condition_set: CV-1 cells, relative to maximum response of high control N-(3-((4-fluorophenyl)-(naphthalene-2-sulfonyl)amino)propyl)-2,2-dimethylpropionamide, read-out: LXRbeta % EFFICACY
All answers are understood in %, so give the number only.

>  <molecule>
Cc1nc(-c2ccc3c(c2)OC(F)(F)O3)c(-c2cc(-c3cc(F)c(CO)c(S(C)(=O)=O)c3)ccc2-c2cc([C@H](C)C#N)nn2C)o1 [Example 59]

>  <Emax / %>
76

$$$$
>  <molecule>
Cc1nc(-c2ccc3c(c2)OC(F)(F)O3)c(-c2cc(-c3cc(F)c(CO)c(S(C)(=O)=O)c3)ccc2-n2ccc(C(F)(F)F)n2)o1 [Example 349]

>  <Emax / %>
72

$$$$
>  <molecule>
Cc1cc(C(F)(F)F)nn1-c1ccc(-c2cccc(C(C)(C)C(N)=O)c2)cc1-n1nncc1-c1ccc(OC(F)(F)F)cc1 [Example 303]

>  <Emax / %>
102

$$$$
>  <molecule>
COc1ncc(-c2oc(C)nc2-c2cc(-c3cccc(S(C)(=O)=O)c3)ccc2-n2ccc(C(F)(F)F)n2)cc1F [Example 407]

>  <Emax / %>
91

$$$$
>  <molecule>
Cc1nc(-c2ccc3c(c2)OC(F)(F)O3)c(-c2cc(-c3cccc(S(C)(=O)=O)c3)ccc2-c2cc(C3(C#N)CC3)nn2C)o1 [Example 118]

>  <Emax / %>
86

$$$$

Entry Cc1nc(-c2ccc3c(c2)OC(F)(F)O3)c(-c2cc(-c3cc(F)c(CO)c(S(C)(=O)=O)c3)ccc2-c2cc(C(C)(F)F)nn2C)o1 [Example 95] , Emax reported as 65

Cc1nc(-c2ccc(OC(F)F)c(F)c2)c(-c2cc(-c3cc(F)c(CO)c(S(C)(=O)=O)c3)ccc2-c2cc(C(F)(F)CO)nn2C)o1 [Example 77] yielded Emax of 86

// Emax lookup, molecule = CCC(F)(F)c1cc(-c2ccc(-c3cc(F)c(CO)c(S(C)(=O)=O)c3)cc2-n2nncc2-c2ccc(OC(F)(F)F)cc2)n(C)n1 [Example 2] , result: 89

Cc1cc(C(C)(F)F)nn1-c1ccc(-c2cc(F)c(CO)c(S(C)(=O)=O)c2)cc1-n1nncc1-c1ccc(OC(F)(F)F)cc1 [Example 305] yielded Emax of 45

The recorded Emax for entry CC(=O)c1cc(-c2ccc(-c3cc(F)c(CO)c(S(C)(=O)=O)c3)cc2-c2oc(C)nc2-c2ccc3c(c2)OC(F)(F)O3)n(C)n1 [Example 133] equals 66

Record CC(C)c1nc(-c2cc(-c3cc(F)c(CO)c(S(C)(=O)=O)c3)ccc2-n2ccc(C(F)(F)F)n2)c(-c2ccc(OC(F)(F)F)cc2)o1 [Example 398] , field Emax: 63

Per the record, Cc1nc(-c2ccc3c(c2)OC(F)(F)O3)c(-c2cc(-c3cc(F)c(CO)c(S(C)(=O)=O)c3)ccc2-c2cc(C(C)(C)c3nnco3)nn2C)o1 [Example 68] has Emax of 51

Measured Emax, Cc1nc(-c2ccc(OC(F)(F)F)cc2)c(-c2cc(-c3cccc(S(C)(=O)=O)c3)ccc2-n2ccc(CO)n2)o1 [Example 321] : 40

Measured Emax of Cc1nc(-c2ccc(OC(F)F)c(F)c2)c(-c2cc(-c3cc(F)c(CO)c(S(C)(=O)=O)c3)ccc2-c2cc(C(F)(F)C(=O)N(C)C)nn2C)o1 [Example 79] : 87

The molecule Cc1nc(-c2ccc(OC(F)(F)F)cc2)c(-c2cc(-c3cc(F)c(CO)c(S(C)(=O)=O)c3)ccc2-c2cc(C(F)(F)C(N)=O)nn2C)o1 [Example 70] showed Emax equal to 42

Memo: Cc1nc(-c2cc(-c3cc(F)c(CO)c(S(C)(=O)=O)c3)ccc2-n2nc(C(F)(F)F)cc2C2CC2)c(-c2ccc(OC(F)(F)F)cc2)o1 [Example 415] , reported Emax: 37

Value of Emax reported for the molecule Cc1nc(-c2cc(-c3cc(F)c(CO)c(S(C)(=O)=O)c3)ccc2-n2nc(C(F)(F)F)cc2Cl)c(-c2ccc(OC(F)(F)F)cc2)o1 [Example 405] is 63

Lab book: Emax of CCOc1cc(C(F)(F)F)nn1-c1ccc(-c2cccc(S(C)(=O)=O)c2)cc1-c1nc(C)oc1-c1ccc(OC(F)(F)F)cc1 [Example 311] noted as 37

Entry under test: Cc1nc(-c2ccc3c(c2)OC(F)(F)O3)c(-c2cc(-c3cc(F)c(CO)c(S(C)(=O)=O)c3)ccc2-c2cc(C(F)(F)C(=O)NCC3CC3)nn2C)o1 [Example 87] . Its Emax was 33

Lookup result for Cc1nc(-c2cc(-c3cccc(S(C)(=O)=O)c3)ccc2-n2ccc(C(F)(F)F)n2)c(-c2ccc(OC(F)F)nc2)o1 [Example 394] ; measured Emax: 97

Field Emax (entry Cc1nc(-c2ccc(Cl)cc2Cl)c(-c2cc(-c3cccc(S(C)(=O)=O)c3)ccc2-n2ccc(C(F)(F)F)n2)o1 [Example 337] ) reads 77
